Where do the numbers come from? From paper PMC9090415.

Biological target: P. falciparum apicoplast DNA polymerase (Pf-apPOL) (Plasmodium falciparum)
Sequence (Q8ILY1 entry or part of it): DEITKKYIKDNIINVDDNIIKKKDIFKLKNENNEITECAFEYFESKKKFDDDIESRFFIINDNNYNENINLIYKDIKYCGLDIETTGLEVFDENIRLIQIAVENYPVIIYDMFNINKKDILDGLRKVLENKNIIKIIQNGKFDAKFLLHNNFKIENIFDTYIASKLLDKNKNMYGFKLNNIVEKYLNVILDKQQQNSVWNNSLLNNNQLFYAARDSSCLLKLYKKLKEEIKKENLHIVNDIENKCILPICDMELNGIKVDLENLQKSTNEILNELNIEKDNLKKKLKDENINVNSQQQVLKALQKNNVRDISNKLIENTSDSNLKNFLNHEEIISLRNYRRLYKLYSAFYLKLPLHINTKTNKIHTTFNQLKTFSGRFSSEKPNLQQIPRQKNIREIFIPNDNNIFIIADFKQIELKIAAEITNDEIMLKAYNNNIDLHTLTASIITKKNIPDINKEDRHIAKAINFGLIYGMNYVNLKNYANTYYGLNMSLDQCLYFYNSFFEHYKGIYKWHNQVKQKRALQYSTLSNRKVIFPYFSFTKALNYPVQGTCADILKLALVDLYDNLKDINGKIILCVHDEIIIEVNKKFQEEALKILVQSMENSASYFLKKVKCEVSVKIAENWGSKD
Assay: Fluorescence-based high-throughput DNA polymerase assay (molecular beacon), primary screen and dose-response
Format: biochemical
Conditions: DRC-1; 10'; concentration 80
Criterion: % inhibition Apo pol 10' meeting or surpassing 80%. Met: TRUE. Not met: FALSE.

Query: Check if % inhibition Apo pol 10' >= 80% (inclusive). Item: `O=C(O)c1c(F)c(F)c(-c2c(F)c(F)c(C(=O)O)c(F)c2F)c(F)c1F`
Response: FALSE

Query: Check if % inhibition Apo pol 10' >= 80% (inclusive). Item: `O=C(CSc1nc2ccccc2s1)Nc1ncc([N+](=O)[O-])s1`
Response: TRUE

Query: Check if % inhibition Apo pol 10' >= 80% (inclusive). Item: `CCSc1nnc(NC(=O)Cc2csc(NC(=O)c3cnccn3)n2)s1`
Response: FALSE

Query: Check if % inhibition Apo pol 10' >= 80% (inclusive). Item: `Cc1cc(C)c2c(O)nc(SCC(=O)c3ccc(O)c(O)c3)nc2n1`
Response: TRUE

Query: Check if % inhibition Apo pol 10' >= 80% (inclusive). Item: `Oc1ccc(N=Nc2ccccc2)c(O)c1`
Response: FALSE

Query: Check if % inhibition Apo pol 10' >= 80% (inclusive). Item: `CCOC(=O)C1=C2c3cc(OC)c(OC)cc3CC(C)(C)N2C(=O)C1=O`
Response: TRUE

Query: Check if % inhibition Apo pol 10' >= 80% (inclusive). Item: `Cc1ncc(CSc2nc(C(C)(C)C)cs2)c(CO)c1O`
Response: FALSE

Query: Check if % inhibition Apo pol 10' >= 80% (inclusive). Item: CC(NC(=O)Cc1cc(=O)[nH]c(SCc2cccc(Cl)c2)n1)c1ccccc1 (centres unmarked)
Response: TRUE

Query: Check if % inhibition Apo pol 10' >= 80% (inclusive). Item: `COc1ccc(S(=O)(=O)/N=C2\NC(=O)/C(=C3\C(=O)Nc4ccc([N+](=O)[O-])cc43)S2)cc1`
Response: TRUE

Query: Check if % inhibition Apo pol 10' >= 80% (inclusive). Item: `Cc1ccc(C(=O)/C=C/C=C/C=C/N(C)C)o1`
Response: FALSE

Query: Check if % inhibition Apo pol 10' >= 80% (inclusive). Item: `O=C(O)C(=O)Nc1nc(-c2ccc3c(c2)OCCO3)cs1`
Response: FALSE

Query: Check if % inhibition Apo pol 10' >= 80% (inclusive). Item: `O=c1[nH]c2ccc([N+](=O)[O-])cc2c(-c2ccccc2)c1Sc1nc2ccccc2o1`
Response: TRUE
